experiment: Half life in human liver microsomes at 40 uM by LC/MS/MS; format: ADME, Microsome
endpoint-label: half-life at 40 µM (min)
Answer format: numeric, min implied, no suffix.

Assign half-life at 40 µM to the following record: CCN(CC)CCOc1ccc(CCC(Cc2cc3ccc(C)cc3oc2=O)C(=O)NO)cc1 (stereo unspecified)
73

* * *

experiment: Mean residence time (infinity) in Sprague-Dawley rat at 5 mg/kg, iv; type: ADME, organism-based; parameters: dose 5 mg/kg, route intravenous; settings: in vivo
endpoint-label: MRT inf (h)
Answer format: numeric, h implied, no suffix.

Assign MRT inf to the following record: CCN(CC)CCOc1ccc(CCC(Cc2cc3ccc(C)cc3oc2=O)C(=O)NO)cc1 (stereo unspecified)
1.14

* * *

experiment: Half life in Sprague-Dawley rat at 30 mg/kg, po; type: ADME, organism-based; parameters: dose 30 mg/kg, route oral; conditions: in vivo
endpoint-label: half-life

Assign half-life to the following record: CCN(CC)CCOc1ccc(CCC(Cc2cc3ccc(C)cc3oc2=O)C(=O)NO)cc1 (stereo unspecified)
3.19 h

* * *

Target: Interstitial collagenase (Homo sapiens, UniProt P03956)
Sequence (P03956 whole entry): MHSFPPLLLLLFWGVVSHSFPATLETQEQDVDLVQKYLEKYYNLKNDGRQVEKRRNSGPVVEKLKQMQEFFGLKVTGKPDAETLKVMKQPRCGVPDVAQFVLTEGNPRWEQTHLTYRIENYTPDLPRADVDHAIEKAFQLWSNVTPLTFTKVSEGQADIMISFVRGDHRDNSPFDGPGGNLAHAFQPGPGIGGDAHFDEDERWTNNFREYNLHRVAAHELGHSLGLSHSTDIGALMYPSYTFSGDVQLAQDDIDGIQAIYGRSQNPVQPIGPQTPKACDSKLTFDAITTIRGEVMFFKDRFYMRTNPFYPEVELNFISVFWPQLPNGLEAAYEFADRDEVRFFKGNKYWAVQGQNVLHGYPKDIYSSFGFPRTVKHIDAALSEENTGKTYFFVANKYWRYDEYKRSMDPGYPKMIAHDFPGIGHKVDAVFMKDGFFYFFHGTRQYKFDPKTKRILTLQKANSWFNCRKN
Experiment: Inhibition of human MMP1 in cell-free system by fluorescent spectroscopy
endpoint-label: pIC50
# pIC50 is unitless: minus log10 of the molar concentration; print number only

Fill in pIC50 for CCN(CC)CCOc1ccc(CCC(Cc2cc3ccc(C)cc3oc2=O)C(=O)NO)cc1 (stereo unspecified) tested with Interstitial collagenase (Homo sapiens, UniProt P03956).
6.25

* * *

assay: Tmax in Sprague-Dawley rat at 30 mg/kg, po; format: ADME, organism-based; parameters: dose 30 mg/kg, route oral; conditions: in vivo
endpoint-label: Tmax

Assign Tmax to the following record: CCN(CC)CCOc1ccc(CCC(Cc2cc3ccc(C)cc3oc2=O)C(=O)NO)cc1 (stereo unspecified)
2 h

* * *

assay: Cmax in Sprague-Dawley rat at 30 mg/kg, po; assay type: ADME, organism-based; design: dose 30 mg/kg, route oral; details: in vivo
endpoint-label: Cmax (ng/mL)
Answer format: numeric, ng/mL implied, no suffix.

Assign Cmax to the following record: CCN(CC)CCOc1ccc(CCC(Cc2cc3ccc(C)cc3oc2=O)C(=O)NO)cc1 (stereo unspecified)
1140

* * *

assay: AUC (0 to infinity) in Sprague-Dawley rat at 5 mg/kg, iv; assay type: ADME, organism-based; set-up: time infinity, dose 5 mg/kg, route intravenous; conditions: plasma
endpoint-label: AUC(0-inf) (ng·h/mL)
Answer format: numeric, ng·h/mL implied, no suffix.

Assign AUC(0-inf) to the following record: CCN(CC)CCOc1ccc(CCC(Cc2cc3ccc(C)cc3oc2=O)C(=O)NO)cc1 (stereo unspecified)
1880

* * *

target: Matrix metalloproteinase-9 (Homo sapiens, UniProt P14780); assay: Inhibition of human MMP9 in cell-free system by fluorescent spectroscopy
Sequence (P14780 whole entry): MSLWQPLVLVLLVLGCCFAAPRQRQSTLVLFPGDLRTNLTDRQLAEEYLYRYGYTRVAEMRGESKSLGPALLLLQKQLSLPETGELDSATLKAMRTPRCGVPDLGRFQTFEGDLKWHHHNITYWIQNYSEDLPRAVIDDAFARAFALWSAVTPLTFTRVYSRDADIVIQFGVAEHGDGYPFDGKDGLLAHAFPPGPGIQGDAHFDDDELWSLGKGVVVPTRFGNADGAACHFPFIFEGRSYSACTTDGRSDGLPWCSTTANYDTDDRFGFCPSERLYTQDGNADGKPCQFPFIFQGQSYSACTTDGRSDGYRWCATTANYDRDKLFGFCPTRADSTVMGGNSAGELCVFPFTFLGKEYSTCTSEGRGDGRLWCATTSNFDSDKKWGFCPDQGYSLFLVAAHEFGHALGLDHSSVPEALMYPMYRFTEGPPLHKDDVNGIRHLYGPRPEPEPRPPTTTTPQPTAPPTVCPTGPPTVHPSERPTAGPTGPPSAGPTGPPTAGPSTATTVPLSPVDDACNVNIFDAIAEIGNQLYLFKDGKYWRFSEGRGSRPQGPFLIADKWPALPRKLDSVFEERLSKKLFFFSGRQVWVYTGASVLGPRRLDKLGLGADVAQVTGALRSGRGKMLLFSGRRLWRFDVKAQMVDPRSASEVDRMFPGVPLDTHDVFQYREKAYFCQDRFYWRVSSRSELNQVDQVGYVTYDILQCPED
endpoint-label: pIC50
# pIC50 is unitless: minus log10 of the molar concentration; print number only

Assign pIC50 to the following record: CCN(CC)CCOc1ccc(CCC(Cc2cc3ccc(C)cc3oc2=O)C(=O)NO)cc1 (stereo unspecified)
7.64

* * *

test: Metabolic stability in human liver microsomes at 40 uM by LC/MS/MS; assay type: ADME, Microsome
endpoint-label: microsomal CLint at 40 µM (µL/min/mg)
Answer format: numeric, µL/min/mg implied, no suffix.

Assign microsomal CLint at 40 µM to the following record: CCN(CC)CCOc1ccc(CCC(Cc2cc3ccc(C)cc3oc2=O)C(=O)NO)cc1 (stereo unspecified)
9.5

* * *

target: Disintegrin and metalloproteinase domain-containing protein 17 (Homo sapiens); assay: Inhibition of human TACE by fluorescent spectroscopy
Sequence (P78536 whole entry, the tested form may be a part): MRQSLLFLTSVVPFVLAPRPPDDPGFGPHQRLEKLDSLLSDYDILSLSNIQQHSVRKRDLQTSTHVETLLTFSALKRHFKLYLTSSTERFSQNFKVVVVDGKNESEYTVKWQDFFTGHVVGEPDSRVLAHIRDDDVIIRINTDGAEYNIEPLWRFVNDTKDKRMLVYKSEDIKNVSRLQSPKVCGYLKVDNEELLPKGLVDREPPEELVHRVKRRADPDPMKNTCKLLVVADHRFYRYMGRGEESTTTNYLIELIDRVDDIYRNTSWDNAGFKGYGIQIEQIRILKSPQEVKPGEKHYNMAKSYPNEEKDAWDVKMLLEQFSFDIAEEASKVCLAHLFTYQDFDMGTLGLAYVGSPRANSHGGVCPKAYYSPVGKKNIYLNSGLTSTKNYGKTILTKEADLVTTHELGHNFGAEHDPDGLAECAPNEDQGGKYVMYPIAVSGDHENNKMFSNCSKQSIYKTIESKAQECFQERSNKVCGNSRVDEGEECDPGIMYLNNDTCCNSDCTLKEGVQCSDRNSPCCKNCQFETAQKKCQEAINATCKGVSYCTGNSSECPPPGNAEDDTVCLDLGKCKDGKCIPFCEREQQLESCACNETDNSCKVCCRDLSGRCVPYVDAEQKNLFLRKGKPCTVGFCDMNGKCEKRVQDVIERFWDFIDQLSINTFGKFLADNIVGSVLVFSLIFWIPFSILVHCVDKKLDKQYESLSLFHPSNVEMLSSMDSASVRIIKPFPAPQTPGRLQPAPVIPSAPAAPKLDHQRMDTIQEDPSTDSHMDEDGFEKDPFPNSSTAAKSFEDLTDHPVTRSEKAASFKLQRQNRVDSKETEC
pIC50: −log10 of the molar value.
Short version: pIC50 at least 9 is fulfilled, less is not fulfilled.

A selection of reference data follows.
Evaluate Cc1ccc2oc(=O)c(CC(CCCCc3ccccc3)C(=O)NO)cc2c1 (stereo not given) : pIC50 at minimum 9?
not fulfilled

Evaluate CCN(CC)CCOc1ccc(CCC(Cc2cc3cc(C)ccc3oc2=O)C(=O)NO)cc1 (stereo not given) : pIC50 at minimum 9?
fulfilled

Evaluate Cc1ccc2oc(=O)c(CC(Cc3ccc(OCCN4CCCCC4)cc3)C(=O)NO)cc2c1 (stereo not given) : pIC50 at minimum 9?
not fulfilled

Evaluate CCN(CC)CCOc1ccc(CCC(Cc2cc3ccc(F)cc3oc2=O)C(=O)NO)cc1 (stereo not given) : pIC50 at minimum 9?
fulfilled

Evaluate Cc1ccc2oc(=O)c(CC(Cc3ccccc3)C(=O)NO)cc2c1 (stereo not given) : pIC50 at minimum 9?
fulfilled

Evaluate Cc1ccc2oc(=O)c(CC(CCc3ccc(O)cc3)C(=O)NO)cc2c1 (stereo not given) : pIC50 at minimum 9?
fulfilled

With those in mind, consider the next compound.
Evaluate CCN(CC)CCOc1ccc(CCC(Cc2cc3ccc(C)cc3oc2=O)C(=O)NO)cc1 (stereo not given) : pIC50 at minimum 9?
fulfilled

* * *

molecular target: Disintegrin and metalloproteinase domain-containing protein 17 (Homo sapiens); experiment: Inhibition of human TNF-alpha by fluorescent spectroscopy; format: functional
endpoint-label: IC50 (nM)
Answer format: numeric, nM implied, no suffix.

Assign IC50 to the following record: Cc1ccc2oc(=O)c(CC(CCCc3cccc(OCCN4CCCCC4)c3)C(=O)NO)cc2c1 (stereo not drawn)
230

Further cases:
Assign IC50 to the following record: Cc1ccc2oc(=O)c(CC(CCc3cccc(OCCN4CCCCC4)c3)C(=O)NO)cc2c1 (stereo not drawn)
240

Assign IC50 to the following record: Cc1ccc2oc(=O)c(CC(CCc3ccc(O)cc3)C(=O)NO)cc2c1 (stereo not drawn)
920

Assign IC50 to the following record: CCN(CC)CCOc1ccc(CCC(Cc2cc3ccc(F)cc3oc2=O)C(=O)NO)cc1 (stereo not drawn)
70

Assign IC50 to the following record: Cc1ccc2oc(=O)c(CC(Cc3ccccc3)C(=O)NO)cc2c1 (stereo not drawn)
520

Assign IC50 to the following record: Cc1ccc2oc(=O)c(CC(Cc3cccc(OCCN4CCCCC4)c3)C(=O)NO)cc2c1 (stereo not drawn)
260

Assign IC50 to the following record: Cc1ccc2oc(=O)c(CC(CCc3ccc(OCCN(C)C)cc3)C(=O)NO)cc2c1 (stereo not drawn)
110

* * *

pIC50 by entry:
molecular target: Disintegrin and metalloproteinase domain-containing protein 17 (Homo sapiens); test: Inhibition of human TNF-alpha by fluorescent spectroscopy; type: functional
# pIC50 is unitless: minus log10 of the molar concentration; print number only

Assign pIC50 to the following record: Cc1ccc2oc(=O)c(CC(CCCc3ccc(OCCN4CCCCC4)cc3)C(=O)NO)cc2c1 (stereo not given)
6.49

Further cases:
Assign pIC50 to the following record: Cc1ccc2oc(=O)c(CC(CCc3ccc(OCCN4CCCCC4)cc3)C(=O)NO)cc2c1 (stereo not given)
6.70

Assign pIC50 to the following record: CCN(CC)CCOc1ccc(CCC(Cc2cc3cc(C)ccc3oc2=O)C(=O)NO)cc1 (stereo not given)
6.85

Assign pIC50 to the following record: CCN(CC)CCOc1ccc(CCC(Cc2cc3ccc(C)cc3oc2=O)C(=O)NO)cc1 (stereo not given)
7.22

Assign pIC50 to the following record: Cc1ccc2oc(=O)c(CC(Cc3ccc(OCCN4CCCCC4)cc3)C(=O)NO)cc2c1 (stereo not given)
5.82

* * *

test: Volume of distribution at steady state in Sprague-Dawley rat at 5 mg/kg, iv; type: ADME, organism-based; parameters: dose 5 mg/kg, route intravenous; conditions: in vivo, read-out: Vdss
endpoint-label: Vd (L/kg)
Answer format: numeric, L/kg implied, no suffix.

Assign Vd to the following record: CCN(CC)CCOc1ccc(CCC(Cc2cc3ccc(C)cc3oc2=O)C(=O)NO)cc1 (stereo unspecified)
3.04

* * *

target: Stromelysin-1 (Homo sapiens, UniProt P08254); test: Inhibition of human MMP3 in cell-free system by fluorescent spectroscopy
Sequence (P08254 whole entry): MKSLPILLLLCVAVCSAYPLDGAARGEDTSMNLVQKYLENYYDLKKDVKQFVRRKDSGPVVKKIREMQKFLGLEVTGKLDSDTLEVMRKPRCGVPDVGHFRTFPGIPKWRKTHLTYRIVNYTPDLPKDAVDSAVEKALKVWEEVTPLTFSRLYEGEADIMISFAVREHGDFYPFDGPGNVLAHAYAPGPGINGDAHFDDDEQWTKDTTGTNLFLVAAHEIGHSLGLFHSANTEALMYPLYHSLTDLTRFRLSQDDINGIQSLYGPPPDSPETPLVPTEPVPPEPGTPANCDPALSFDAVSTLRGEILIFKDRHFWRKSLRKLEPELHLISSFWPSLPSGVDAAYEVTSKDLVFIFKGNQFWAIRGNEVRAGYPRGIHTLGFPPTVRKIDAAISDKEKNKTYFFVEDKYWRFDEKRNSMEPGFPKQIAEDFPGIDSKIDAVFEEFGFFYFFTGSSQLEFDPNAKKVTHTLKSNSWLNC
endpoint-label: pIC50
# pIC50 is unitless: minus log10 of the molar concentration; print number only

Assign pIC50 to the following record: CCN(CC)CCOc1ccc(CCC(Cc2cc3ccc(C)cc3oc2=O)C(=O)NO)cc1 (stereo unspecified)
8.06
